Sourced from BindingDB's records for patent US10030020

Biological target: Monoacylglycerol lipase ABHD6 (Mus musculus)
Sequence (Q8R2Y0 whole entry): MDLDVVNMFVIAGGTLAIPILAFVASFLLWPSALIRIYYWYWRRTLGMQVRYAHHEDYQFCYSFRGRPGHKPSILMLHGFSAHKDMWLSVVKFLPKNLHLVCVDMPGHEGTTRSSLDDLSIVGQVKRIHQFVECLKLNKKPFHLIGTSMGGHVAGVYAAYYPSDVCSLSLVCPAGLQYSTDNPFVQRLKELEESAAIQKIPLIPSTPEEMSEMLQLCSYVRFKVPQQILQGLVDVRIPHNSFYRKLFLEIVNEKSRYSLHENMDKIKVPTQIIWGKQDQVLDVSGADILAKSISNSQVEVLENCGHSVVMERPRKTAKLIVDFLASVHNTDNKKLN
Experiment: In Vitro Competitive Activity-Based Protein Profiling
recorded.metric: IC50

>>> reading("O=C(OC(C(F)(F)F)C(F)(F)F)N1CCC2(CCCN2Cc2ccc(OCCN3CCOCC3)cc2)CC1 [US10030020, Example 14]")
"> 1000 nM"
